# PROTOCOL NOTES: Oral bioavailability in Fischer rat at 30 mg/kg
# Assay type: ADME, organism-based
# CONDITION SET: in vivo
METRIC: bioavailability (%)

1) CCOC(=O)c1ccc(Cl)cc1O[C@H]1CC[C@H]2CN[C@H](C(=O)OCC)C[C@H]2C1.Cl    32.9

[P] CCOC(=O)c1ccccc1S[C@H]1CC[C@H]2CN[C@H](C(=O)OCC)C[C@H]2C1.Cl
[Q] CCOC(=O)c1ccccc1O[C@H]1CC[C@H]2CN[C@H](C(=O)OCC)C[C@H]2C1.Cl
[R] CCOC(=O)c1ccc(-c2ccccc2)cc1O[C@H]1CC[C@H]2CN[C@H](C(=O)OCC)C[C@H]2C1.Cl
[in] Rank items: key bioavailability, increasing. Field: ranking. Enter the labels in the order requested.
[out] R, P, Q
(R: 22.2%, P: 38.8%, Q: 75.3%)

Where do the numbers come from? From ChEMBL document CHEMBL2440037.
